This collection of values is drawn from patent US9624229B2.

subject.of.test: Ba/F3 V617F cells (Homo sapiens, UniProt O60674, V617F, cells depend on it)
Sequence (O60674 whole entry V617F): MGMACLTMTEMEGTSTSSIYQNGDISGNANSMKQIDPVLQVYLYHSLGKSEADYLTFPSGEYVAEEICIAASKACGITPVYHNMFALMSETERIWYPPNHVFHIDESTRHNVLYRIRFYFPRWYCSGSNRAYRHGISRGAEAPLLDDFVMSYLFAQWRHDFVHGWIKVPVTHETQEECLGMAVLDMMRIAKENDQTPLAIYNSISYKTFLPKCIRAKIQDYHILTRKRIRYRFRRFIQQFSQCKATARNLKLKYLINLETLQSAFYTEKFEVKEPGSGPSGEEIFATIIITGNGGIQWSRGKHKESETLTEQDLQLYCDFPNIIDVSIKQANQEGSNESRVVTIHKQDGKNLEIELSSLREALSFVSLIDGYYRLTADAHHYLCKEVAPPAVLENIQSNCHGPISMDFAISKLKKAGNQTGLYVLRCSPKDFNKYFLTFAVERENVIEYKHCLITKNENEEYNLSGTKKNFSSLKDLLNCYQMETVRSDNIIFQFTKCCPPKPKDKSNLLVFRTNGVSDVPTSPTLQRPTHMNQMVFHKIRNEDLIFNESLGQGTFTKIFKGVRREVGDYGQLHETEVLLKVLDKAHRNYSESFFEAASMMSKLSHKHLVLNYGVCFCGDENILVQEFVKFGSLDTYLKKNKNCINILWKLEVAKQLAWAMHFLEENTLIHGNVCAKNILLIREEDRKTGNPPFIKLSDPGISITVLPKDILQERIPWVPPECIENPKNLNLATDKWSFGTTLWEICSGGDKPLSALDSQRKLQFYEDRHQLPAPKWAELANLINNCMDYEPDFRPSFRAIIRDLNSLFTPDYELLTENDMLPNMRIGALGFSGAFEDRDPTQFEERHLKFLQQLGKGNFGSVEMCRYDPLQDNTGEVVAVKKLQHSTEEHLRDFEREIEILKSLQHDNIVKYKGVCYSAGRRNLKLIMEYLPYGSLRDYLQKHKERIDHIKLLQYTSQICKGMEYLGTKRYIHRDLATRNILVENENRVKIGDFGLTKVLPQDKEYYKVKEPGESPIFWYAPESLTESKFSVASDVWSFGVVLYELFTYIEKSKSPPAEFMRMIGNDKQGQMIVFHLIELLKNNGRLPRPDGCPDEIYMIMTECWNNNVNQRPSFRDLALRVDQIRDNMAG
assay.remarks: Proliferation assay (Cell Titer-Glo, 72 h) utilizing Ba/F3 V617F cells
Type: cell-based, mouse
run.parameters: inhibition of JAK2 activity, proliferation of Ba/F3 V617F cells, read-out: IC50 (the source's name)
recorded.metric: GI50

[[record]]
mol = "Cc1cc(Nc2nccc(-c3ccc(N)nc3)n2)cnc1N1C[C@@H]2C[C@H]1CN2C"
measurement = "< 1000 nM"

[[record]]
mol = "Cc1cc(Nc2nccc(-c3ccc(N(C)C)nc3)n2)cnc1N1C[C@@H]2C[C@H]1CN2C"
measurement = "< 1000 nM"

[[record]]
mol = "Cc1cc(Nc2nccc(-c3cnc4c(c3)OCCN4C)n2)cnc1N1C[C@@H]2C[C@H]1CN2C"
measurement = "< 1000 nM"

[[record]]
mol = "Cc1cc(Nc2nccc(-c3ccc(N4CCOCC4)nc3)n2)cnc1N1C[C@@H]2C[C@H]1CN2C"
measurement = "1000 to 10000 nM"


###

subject.of.test: Ba/F3 V617F cells (Homo sapiens, UniProt O60674, V617F, cells depend on it)
assay.remarks: Proliferation assay (Cell Titer-Glo, 72 h) utilizing Ba/F3 V617F cells
Type: cell-based, mouse
run.parameters: inhibition of JAK2 activity, proliferation of Ba/F3 V617F cells, read-out: IC50 (the source's name)
recorded.metric: GI50

[[record]]
mol = "CN(C)c1ccc(-c2ccnc(Nc3ccc(N4C[C@@H]5C[C@H]4CN5C)nc3)n2)cc1"
measurement = "1 to 10 µM"

[[record]]
mol = "Cc1cc(Nc2nccc(-c3cnc4c(c3)OC(C)(C)C(=O)N4)n2)cnc1N1C[C@@H]2C[C@H]1CN2C"
measurement = "< 1 µM"

[[record]]
mol = "Cc1cc(Nc2nccc(-c3ccc(NS(C)(=O)=O)nc3)n2)cnc1N1C[C@@H]2C[C@H]1CN2C"
measurement = "> 20 µM"

[[record]]
mol = "CN(C)c1ccc(-c2ccnc(Nc3ccc(N4C[C@@H]5C[C@H]4CN5C)nc3)n2)cn1"
measurement = "1 to 10 µM"

[[record]]
mol = "Cc1cc(Nc2nccc(-c3ccc(N(C)C)cc3)n2)cnc1N1C[C@@H]2C[C@H]1CN2C"
measurement = "1 to 10 µM"

[[record]]
mol = "CC(=O)Nc1ccc(-c2ccnc(Nc3ccc(N4C[C@@H]5C[C@H]4CN5C)nc3)n2)cn1"
measurement = "1 to 10 µM"

[[record]]
mol = "CC(=O)N1CCN(c2ccc(-c3ccnc(Nc4cnc(N5C[C@@H]6C[C@H]5CN6C)c(C)c4)n3)cn2)CC1"
measurement = "1 to 10 µM"

[[record]]
mol = "Cc1cc(-c2ccnc(Nc3cnc(N4C[C@@H]5C[C@H]4CN5C)c(C)c3)n2)cnc1N1CCOCC1"
measurement = "< 1 µM"

[[record]]
mol = "Cc1cc(Nc2nccc(-c3ccc(NC(=O)CN4CCOCC4)nc3)n2)cnc1N1C[C@@H]2C[C@H]1CN2C"
measurement = "1 to 10 µM"

[[record]]
mol = "Cc1cc(Nc2nccc(-c3ccc4c(ccn4-c4ccncc4)c3)n2)cnc1N1C[C@@H]2C[C@H]1CN2C"
measurement = "< 1 µM"

[[record]]
mol = "Cc1cc(Nc2nccc(-c3ccc(N4C[C@@H]5C[C@H]4CO5)nc3)n2)cnc1N1C[C@@H]2C[C@H]1CN2C"
measurement = "< 1 µM"

[[record]]
mol = "Cc1cc(-c2ccnc(Nc3ccc(N4C[C@@H]5C[C@H]4CN5C)nc3)n2)cnc1N1CCOCC1"
measurement = "1 to 10 µM"

[[record]]
mol = "CC(=O)Nc1ccc(-c2ccnc(Nc3cnc(N4C[C@@H]5C[C@H]4CN5C)c(C)c3)n2)cn1"
measurement = "1 to 10 µM"

[[record]]
mol = "Cc1cc(Nc2nccc(-c3ccc(NC(=O)C(C)(C)C)cc3)n2)cnc1N1C[C@@H]2C[C@H]1CN2C"
measurement = "< 1 µM"

[[record]]
mol = "Cc1cc(Nc2nccc(-c3ccc(NC(=O)NC4CC4)cc3)n2)cnc1N1C[C@@H]2C[C@H]1CN2C"
measurement = "1 to 10 µM"

